system: HL-60; assay: NCI tumour cell line growth inhibition, 48 h
Active and inactive are the calls of the source. No stated cut-off is given here; in the data, active = GI50 up to about 1.1 µM and inactive = higher.
Your reply should match one of these outcome classes. y = active, n = inactive

{"columns": ["COMPOUND", "DISCRETE LABEL"],
 "data": [
  ["COc1cc2c3c(c1O)C1(C=CC(=O)C=C1)CC3N(C)CC2 (centres undefined)", "n"],
  ["CCCCC(C(=O)CCC(=O)Nc1ccc(Cl)cc1)C(=O)C(C)C (centres undefined)", "n"],
  ["COc1cccc(/C=N/NC(=O)CSCC(=O)N/N=C/c2cccc(OC)c2OC)c1OC", "n"],
  ["CSc1nc2c(c(=O)[nH]1)N=C(c1ccc([N+](=O)[O-])cc1)CC(c1ccccc1)N2 (centres undefined)", "n"],
  ["C[C@@H](CC(=O)OCc1ccccc1)OC1OC(COC(=O)C(C)(C)C)C(OC(=O)C(C)(C)C)C(OC(=O)C(C)(C)C)C1OC(=O)C(C)(C)C (some centres undefined)", "n"]
]}

Problem: Could you kindly confirm the outcome this assay logged for O=C1CSC(c2ccccc2)N1c1ccc(-c2ccc(-n3c(-c4ccccc4)nc4ccccc4c3=O)cc2)cc1 (centres undefined) ?
Solution: n

Problem: Look up the recorded call for Nc1ncnc2c1ncn2C1(CO)OC(CO)C(O)C1O (centres undefined) in this test.
Solution: n

Problem: Outcome? CC(=O)OCC12C(OC(C)=O)C[C@@H](C)C3(CC(c4ccoc4)OC3=O)C1CCC(OC(C)=O)C21CO1 (some centres undefined)
Solution: n

Problem: Tell me the recorded outcome of this test for CCOP1(=O)C=C(Sc2ccc([N+](=O)[O-])cc2[N+](=O)[O-])C(C)(C)O1 (centres undefined) .
Solution: n

Problem: I would be grateful if you could indicate the recorded call for COc1cc([C@@H]2c3cc4c(cc3[C@@H](NC(=O)c3cccc(F)c3)C3COC(=O)[C@@H]32)OCO4)cc(OC)c1O (some centres undefined) .
Solution: y

Problem: Outcome logged for O=C(Nc1ccc(C2=NCCN2)cc1)c1cncc(C(=O)Nc2ccc(C3=NCCN3)cc2)c1 in this assay:
Solution: n

====

test system: HOP-92; experiment: NCI tumour cell line growth inhibition, 48 h
The source made the active and inactive calls. Cut-off read from the data, not from the text of the source: active = GI50 up to about 1.1 µM and inactive = higher.
PARAMETER: GI50

{"columns": ["MOLECULE", "MEASUREMENT"],
 "data": [
  ["CC1CCC2(C(=O)O)CCC3(C)C(=CCC4C5(C)CC(O)C(O)C(C)(CO)C5C(O)CC43C)C2C1C (stereo not given)", "20.8 µM (inactive)"],
  ["CC1(C)CNC(=O)C2(/C=N/C(C)(C)CNC(=O)C3(/C=N/1)CCCO3)CCCO2 (stereo not given)", "> 10 µM (inactive)"],
  ["COc1cc2c3c(c1O)C1(C=CC(=O)C=C1)CC3N(C)CC2 (stereo not given) [GLAZIOVINE]", "11.6 µM (inactive)"]
]}

Per the record, Cc1cccc(/C(Br)=C2/OC(=O)c3ccccc32)c1 has GI50 of > 100 µM (inactive)

In plain terms, COc1cc(/C=C(\C#N)C(=O)c2ccccc2)cc(OC)c1OC has a documented GI50 of 83.4 µM (inactive)

====

system: NCI/ADR-RES; experiment: NCI tumour cell line growth inhibition, 48 h
Active and inactive are the calls of the source. Rule as the data show it: active = GI50 up to about 1.1 µM and inactive = higher.
One label from this list, please: active, inactive

{"columns": ["MOLECULE", "DISCRETE LABEL"],
 "data": [
  ["CN1[C@@H]2CCCC[C@H]2N(C)P1(=O)C(O)/C=C/c1ccccc1 (some centres undefined)", "inactive"]
]}

Problem: // param item: CCN1CCC(O)(c2ccc(Oc3ccc(F)cc3)cc2)C(C(=O)c2ccc(Oc3ccc(F)cc3)cc2)C1 (centres undefined) ; yields the recorded call
Solution: inactive

Problem: Could you check what this test reported for COc1ccc(/C=N/n2c(-c3ccccc3)n[nH]c2=O)cc1 ?
Solution: inactive

Problem: Dear colleague, could you share the recorded outcome for COc1ccc(C[C@H]2NC(=O)/C=C/C[C@@H]([C@H](C)[C@H]3O[C@@H]3c3ccccc3)OC(=O)[C@H](CC(C)C)OC(=O)[C@H](C)CNC2=O)cc1 when you have a moment?
Solution: active

Problem: Which outcome did this test record for the molecule CC(C(=O)[O-])S(=O)(=O)O.CCc1c2cc(OC)c(OC)cc2cc2c3cc(OC)c(OC)cc3cc[n+]12 ?
Solution: inactive

Problem: Please share the test call associated with COc1cc(OC)c2[nH]c3c(O)c(-c4c(C)cc5c([nH]c6c(OC)cc(OC)cc65)c4O)c(C)cc3c2c1 .
Solution: inactive
